This listing pairs molecules with measured intake of mouse organ: Muscle.
test system: PSMA^+ PC-3 PIP tumors; test: MicroPET/CT imaging of mice transplanted with prostate cancer cell lines; type: in vivo, nude mouse; conditions: 10 min after injection
Reply with just the number (in % ID/g).

Req: Query for PSMA^+ PC-3 PIP tumors: what intake of mouse organ: Muscle does the record show for O=C(O)CCC(NC(=O)NC(CCCCN(CC(=O)O)C(=O)COCCNC(=O)C(CCCCNC(=O)CCCc1ccc(I)cc1)NC(=O)CN1CCN2CCN3CCN(CC1)CC(=O)[O][68Ga]([O]C(=O)C2)[O]C(=O)C3)C(=O)O)C(=O)O (stereo not shown) [[^68Ga]1k] ?
Resp: 2.26
